Data provenance is patent US7718671B2.

Tested on: Hepatitis C replicon
TEST NAME: HCV replicon assay (NPT level by captured ELISA in replicon-containing cells)
Format: cell-based
CONDITION DESCRIPTION: Hepatitis C virus, 72 h; Huh-7 HCV replicon-containing cells, three days incubation
REPORTED ENDPOINT: EC50

Past entries and their recorded results:
COMPOUND STRUCTURE	REPORTED ENDPOINT	READING
Cc1cc(NC(N)=S)ccc1N1CCCCC1	EC50	< 1000 nM
NC(=S)Nc1ccc(N2CCc3ccccc3C2)c(F)c1	EC50	< 1000 nM
CCCCc1ccc(CNC(N)=S)cc1	EC50	< 1000 nM
NC(=S)Nc1ccc(OCc2ccccc2)cc1	EC50	< 1000 nM
CCCCCC[C@H]1CC[C@H](c2ccc(NC(N)=S)cc2)CC1	EC50	< 1000 nM
NC(=S)Nc1cccc(-c2ccccc2)c1	EC50	< 1000 nM
CCCCCCC12CCC(c3ccc(NC(N)=S)cc3)(CC1)CC2	EC50	< 1000 nM
C[C@@H](Oc1cccc(NC(N)=S)c1)c1ccccc1	EC50	< 1000 nM

Would you kindly look at the next entry?
**Query** # query: EC50 | item NC(=S)Nc1ccc(N2CCc3ccccc3C2)cc1 | system: Hepatitis C replicon
**Result** < 1000 nM
